We begin with pKi values for Beta-1 adrenergic receptor (Rattus norvegicus, UniProt P18090), as collected from the published literature.
In simple prose, pKi is minus the logarithm base ten of a concentration in moles per litre.

| Compound | Measured Property | Measured Value |
| --- | --- | --- |
| CC(C)(C)NCC(O)COc1ccc(O)c(O)c1 (stereo unspecified) | pKi | 6.92 |
| CC(C)(CO)NCCCOc1cccc2c(=O)c3ccccc3oc12.Cl | pKi | 5.59 |

stdin: Under Beta-1 adrenergic receptor (Rattus norvegicus, UniProt P18090): pKi value of COc1ccc2nc(-c3ccc(OCC(O)CNC(C)(C)C)cc3)n([11CH3])c(=O)c2c1 (racemic) ?
stdout: 7.11

stdin: Under Beta-1 adrenergic receptor (Rattus norvegicus, UniProt P18090): pKi value of O=C1C2C3C=CC(C3)C2C(=O)N1OCC(O)CN1CCN(c2ccccc2)CC1 (stereo unspecified) ?
stdout: 4.41

stdin: Under Beta-1 adrenergic receptor (Rattus norvegicus, UniProt P18090): pKi value of CC(C)(C)NCC(O)COc1cc(O)c(O)cc1F (stereo unspecified) ?
stdout: 4.06

stdin: Under Beta-1 adrenergic receptor (Rattus norvegicus, UniProt P18090): pKi value of CC(C)NCC1OCCc2c1ccc(O)c2O (stereo unspecified) ?
stdout: 4.54

stdin: Under Beta-1 adrenergic receptor (Rattus norvegicus, UniProt P18090): pKi value of CCO/N=C/C(O)CNC(C)(C)C (stereo unspecified) ?
stdout: 5.97

stdin: Under Beta-1 adrenergic receptor (Rattus norvegicus, UniProt P18090): pKi value of "CCOCCOc1ccc(OC[C@@H](O)CNCCc2ccc(OC)c(OC)c2)cc1" ?
stdout: 7.30

###

We begin with pKi values for Beta-1 adrenergic receptor (Rattus norvegicus, UniProt P18090), as collected from the published literature.
In simple prose, pKi is minus the logarithm base ten of a concentration in moles per litre.

Known pKi results, listed for orientation:
| Compound | Measured Value |
| --- | --- |
| CCO/N=C/C(O)CNC(C)C (stereo not given) | 5.98 |
| CCCCN1CCC(COC(=O)c2ccc(N)c(OC)c2)CC1 | 5.36 |
| CCCO/N=C/C(O)CNC(C)C (stereo not given) | 5.91 |
| CNC[C@@H](O)c1ccc(O)c(O)c1 | 4.89 |
| CC(C)(C)NCC(O)COc1cccc2c(=O)c3ccccc3oc12.Cl (racemic) | 8.27 |

Now, please, on to the next compound.
stdin: # get_value(readout='pKi', item= NCC1OCCc2cc(O)c(O)cc21 (stereo not given) )
stdout: 5.46
